System: SF-539 CNS
Assay: NCI-60 one-dose screen, 48 h (100 = growth as untreated, 0 = no growth, -100 = all killed)
Settings: 10 µM unless noted
About 83,000 compounds went through this panel and 20% of them were active in at least one assay; those are over-represented in the sample as a whole.
Assay readout: growth (%)
Field: numeric (%). Do not append units.

(Q) Item "O=C(OC[C@@H]1CO1)c1cccc2c(=O)c3ccccc3[nH]c12" has what recorded growth?
(A) -38.6

(Q) Item "COc1ccc(-c2cn(-c3ccc(Cl)cc3)c(SCC(=O)c3ccc([N+](=O)[O-])cc3)n2)cc1" has what recorded growth?
(A) 82.5

(Q) Item C=CC(C)(O)CC/C=C(\CO)C(=O)OC1C(C)OC(O[C@](C)(C=C)CC/C=C(\CO)C(=O)O[C@H]2C[C@@]3(C(=O)OC4OC(CO)C(O)C(O)C4OC4OC(C)C(OC5OC(CO)C(O)C5O)C(OC5OC(CO)C(O)C(O)C5O)C4O)C(CC2(C)C)C2=CCC4[C@@]5(C)CC[C@H](OC6OC(COC7OC(C)C(O)C(O)C7OC7OCC(O)C(O)C7O)C(O)C(O)C6NC(C)=O)C(C)(C)C5CC[C@@]4(C)[C@]2(C)C[C@H]3O)C(O)C1O (stereo partly drawn) has what recorded growth?
(A) 6.98

(Q) Item "O=C(Cn1nnc([N+](=O)[O-])n1)c1ccccc1" has what recorded growth?
(A) 93.3

(Q) Item "NNC(=S)N/N=C/c1ccccn1" has what recorded growth?
(A) 11.2

(Q) Item "CS(=O)(=O)Nc1cncc(-c2ccc3ncnc(Nc4ccc(F)c(Cl)c4)c3c2)c1" has what recorded growth?
(A) 32.5

(Q) Item "COc1cccc(Nc2ccnc3[nH]c4ccc([N+](=O)[O-])cc4c23)c1" has what recorded growth?
(A) 48.9

(Q) Item "COc1ccc2nc(Cl)c(/C=C/C(=O)c3ccc(NC(=O)CSc4nnc(-c5ccc(Cl)c(Cl)c5)n4-c4ccccc4)cc3)cc2c1" has what recorded growth?
(A) 105

(Q) Item "COc1cc(-c2cc(-c3ccc(Nc4ncnc5cc(Cl)ccc45)cc3)nc(N3CCN(C)CC3)n2)cc(OC)c1OC" has what recorded growth?
(A) 32.9

(Q) Item "Cn1c(O)c(C(/C=C/c2ccccc2)=Nc2ccccc2N)c(=O)n(C)c1=O" has what recorded growth?
(A) 107

(Q) Item "CC(C)c1ccc(C(=O)Nc2sc3cc(O)ccc3c2C#N)cc1" has what recorded growth?
(A) 32.5

(Q) Item Nc1c(C(=O)Nc2ccccn2)sc2nc3c(cc12)C(O)CCC3 (stereo not drawn) has what recorded growth?
(A) 8.44

(Q) Item "COc1ccc2c(O)c(/C=C3\N=Nc4ccccc43)oc2c1C[C@H]1CCNC[C@H]1F" has what recorded growth?
(A) 57.4

(Q) Item "CCSC1=CC(=O)c2ccccc2C1=O" has what recorded growth?
(A) 106

(Q) Item "Cc1ccc2nc(Cl)c(Cn3nnnc3SCc3ccccc3)cc2c1" has what recorded growth?
(A) 94.4

(Q) Item "COc1cc(Nc2ncccc2NC(=O)c2cn(Cc3cccc(Oc4ccccc4)c3)nn2)cc(OC)c1" has what recorded growth?
(A) 93

(Q) Item "O=C1NC(=Nc2ccc(O)cc2)S/C1=C\c1cccs1" has what recorded growth?
(A) 16.7

(Q) Item "O=C(Nc1ccc(F)cc1)Nc1ccccc1CNc1nc(Nc2ccc(OCCN3CCCC3)cc2)ncc1Cl" has what recorded growth?
(A) -74.7

(Q) Item "CCOC(=O)C1CCN(c2ccc(N3C[C@@H](CNCc4ccc(C(=N)N)cc4)OC3=O)cc2)CC1" has what recorded growth?
(A) 94.4

(Q) Item "CCCCNC1=C(OCC)C(=O)c2ccccc2C1=O" has what recorded growth?
(A) 112

(Q) Item "O=C1/C(=C/c2ccc(C(F)(F)F)cc2)COc2ccc(O)c(O)c21" has what recorded growth?
(A) -83.9

(Q) Item "CCCCCCNc1nc(NCCCCCC)c2[nH]c(NCCCCCC)nc2n1" has what recorded growth?
(A) 82.6

(Q) Item "O=C1NC(=O)c2c1c1c3ccccc3[nH]c1c1oc3cc(Br)ccc3c21" has what recorded growth?
(A) 96.9
